target under test: MMP-2 (gelatinase A) (Homo sapiens, UniProt P08253)
Construct: made in house; host or cells: COS-1 cells transfected with human pro-MMP-2 cDNA (secreted into culture medium)
Sequence (P08253 110-660): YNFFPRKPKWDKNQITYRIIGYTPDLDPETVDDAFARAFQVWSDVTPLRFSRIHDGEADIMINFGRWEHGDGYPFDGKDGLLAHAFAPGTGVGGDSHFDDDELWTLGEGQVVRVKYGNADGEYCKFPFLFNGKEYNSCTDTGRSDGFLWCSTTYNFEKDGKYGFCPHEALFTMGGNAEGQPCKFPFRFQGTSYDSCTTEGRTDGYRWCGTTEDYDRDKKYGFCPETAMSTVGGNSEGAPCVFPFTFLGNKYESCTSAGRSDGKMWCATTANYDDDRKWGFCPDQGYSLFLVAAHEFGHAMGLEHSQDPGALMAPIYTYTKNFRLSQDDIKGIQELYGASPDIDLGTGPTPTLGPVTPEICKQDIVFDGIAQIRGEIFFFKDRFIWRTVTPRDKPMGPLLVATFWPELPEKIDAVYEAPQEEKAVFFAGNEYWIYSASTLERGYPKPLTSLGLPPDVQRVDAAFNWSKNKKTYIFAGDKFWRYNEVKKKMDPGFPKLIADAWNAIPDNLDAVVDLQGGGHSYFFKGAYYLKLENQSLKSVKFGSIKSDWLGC
protocol: MMP-2 (gelatinase A) inhibitory activity, FITC-labeled type IV collagen degradation
Format: biochemical
condition summary: 50% inhibition of collagen type IV degradation; activated pro MMP-2 from transfected COS-1 cells; 42° C., 4 h
pIC50: −log10 of the molar value.
measurement label: pIC50

CCOc1ccc(OCCC[C@H](CC(=O)NO)C(=O)N[C@@H](Cc2ccccc2)C(=O)NC)cc1	9.01
CNC(=O)[C@H](Cc1ccccc1)NC(=O)[C@H](CCCCOc1ccc(OC)cc1)CC(=O)NO	8.89
CNC(=O)[C@H](Cc1ccccc1)NC(=O)[C@H](CCc1ccc2cccccc1-2)CC(=O)NO	5.49

a = CNC(=O)[C@H](Cc1ccccc1)NC(=O)[C@H](CCOc1ccc(OC)cc1)CC(=O)O
b = COc1ccc(C[C@H](NC(=O)[C@H](CCCOc2ccc(OC)cc2)CC(=O)NO)C(=O)NCCS(N)(=O)=O)cc1
Q. Min pIC50? a | b Your choice should be expressed through its label.
A. a
(a: 6.80, b: 9.35)

a = CNC(=O)[C@@H](NC(=O)[C@H](CCCOc1ccc(OC)cc1)CC(=O)NO)C(C)(C)C
b = CNC(=O)[C@H](Cc1ccc(OC)cc1)NC(=O)[C@H](CCc1ccc2cccccc1-2)CC(=O)NO
Q. Two entries are listed, a and b . Which one carries the higher pIC50? Your choice should be expressed through its label.
A. a
(a: 8.25, b: 6.80)

* * *

target under test: MMP-9 (gelatinase B) (Homo sapiens, UniProt P14780)
Sequence (P14780 94-707): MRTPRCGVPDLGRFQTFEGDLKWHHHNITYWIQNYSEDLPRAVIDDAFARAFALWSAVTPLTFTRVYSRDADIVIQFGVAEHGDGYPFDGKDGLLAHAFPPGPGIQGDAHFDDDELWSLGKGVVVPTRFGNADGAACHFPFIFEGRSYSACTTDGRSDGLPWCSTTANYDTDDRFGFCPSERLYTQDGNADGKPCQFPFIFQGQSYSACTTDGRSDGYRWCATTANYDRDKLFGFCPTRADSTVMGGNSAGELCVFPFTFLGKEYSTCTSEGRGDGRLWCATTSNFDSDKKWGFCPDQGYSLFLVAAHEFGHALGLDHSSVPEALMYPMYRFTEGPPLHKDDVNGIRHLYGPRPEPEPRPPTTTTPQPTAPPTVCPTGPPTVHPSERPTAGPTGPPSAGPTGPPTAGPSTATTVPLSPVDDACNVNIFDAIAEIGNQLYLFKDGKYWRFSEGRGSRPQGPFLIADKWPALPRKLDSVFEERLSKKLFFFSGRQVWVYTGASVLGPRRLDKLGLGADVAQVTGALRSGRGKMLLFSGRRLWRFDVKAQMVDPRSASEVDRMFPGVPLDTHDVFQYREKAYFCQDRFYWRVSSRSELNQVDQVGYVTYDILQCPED
protocol: MMP-9 (gelatinase B) inhibitory activity, FITC-labeled type IV collagen degradation
condition summary: 50% inhibition of collagen type IV degradation; MMP-9 derived from human fibrosarcoma; 42° C., 4 h
pIC50: −log10 of the molar value.
measurement label: pIC50

CNC(=O)[C@H](Cc1ccc(OC)cc1)NC(=O)[C@H](CCc1ccc2cccccc1-2)CC(=O)NO	7.74
CNC(=O)[C@H](Cc1ccccc1)NC(=O)[C@H](CCCCc1ccc2cccccc1-2)CC(=O)O	5.52

P = CNC(=O)[C@H](Cc1ccccc1)NC(=O)[C@H](CCCCOc1ccc(OC)cc1)CC(=O)O
Q = CNC(=O)[C@H](Cc1ccc(OC)cc1)NC(=O)[C@H](CCc1ccc2cccccc1-2)CC(=O)O
Q. Min pIC50? P | Q Your choice should be expressed through its label.
A. Q

* * *

target under test: MMP-2 (gelatinase A) (Homo sapiens)
protocol: MMP-2 (gelatinase A) inhibitory activity, FITC-labeled type IV collagen degradation
condition summary: 50% inhibition of collagen type IV degradation; activated pro MMP-2 from transfected COS-1 cells; 42° C., 4 h
pIC50: −log10 of the molar value.
measurement label: pIC50

The cases that follow already have their pIC50 on record.
CNC(=O)[C@H](Cc1ccc(OC)cc1)NC(=O)[C@H](CCOc1ccc(OC)cc1)CC(=O)O	7.34
CNC(=O)[C@H](Cc1ccc(OC)cc1)NC(=O)[C@H](CCCOc1ccc(OC)cc1)CC(=O)NO	8.05
CCOc1ccc(C[C@H](NC(=O)[C@H](CCCCOc2ccc(OC)cc2)CC(=O)NO)C(=O)NC)cc1	8.49

1 = COc1ccc(OCCC[C@H](CC(=O)O)C(=O)N[C@@H](Cc2ccccc2)C(=O)NC(C)(C)C)cc1
2 = COc1ccc(OCCC[C@H](CC(=O)O)C(=O)N[C@@H](Cc2ccccc2)C(=O)NCCS(N)(=O)=O)cc1
Q. Min pIC50? 1 | 2 Your choice should be expressed through its label.
A. 1

* * *

target under test: MMP-9 (gelatinase B) (Homo sapiens, UniProt P14780)
protocol: MMP-9 (gelatinase B) inhibitory activity, FITC-labeled type IV collagen degradation
condition summary: 50% inhibition of collagen type IV degradation; MMP-9 derived from human fibrosarcoma; 42° C., 4 h
pIC50: −log10 of the molar value.
measurement label: pIC50

The cases that follow already have their pIC50 on record.
CCOc1ccc(C[C@H](NC(=O)[C@H](CCCOc2ccc(OC)cc2)CC(=O)NO)C(=O)NC)cc1	9.92
CNC(=O)[C@H](Cc1ccccc1)NC(=O)[C@H](CCCc1ccc2cccccc1-2)CC(=O)O	5.55

P = CCOc1ccc(C[C@H](NC(=O)[C@H](CCc2ccc3cccccc2-3)CC(=O)NO)C(=O)NC)cc1
Q = COc1ccc(C[C@H](NC(=O)[C@H](CCCOc2ccc(OC)cc2)CC(=O)NO)C(=O)NC(C)(C)C)cc1
R = CNC(=O)[C@H](Cc1ccc(OC)cc1)NC(=O)[C@H](CCCOc1ccc(OC)cc1)CC(=O)NO
S = CNC(=O)[C@@H](NC(=O)[C@H](CCc1ccc2cccccc1-2)CC(=O)O)C(C)(C)C
T = COc1ccc(C[C@H](NC(=O)[C@H](CCCOc2ccc(OC)cc2)CC(=O)NO)C(=O)NCCS(N)(=O)=O)cc1
Q. Let's sort these by pIC50, smallest first. Go ahead? Give the labels in the order specified.
A. S, P, Q, R, T

P = C=CCOc1ccc(OCCCC[C@H](CC(=O)O)C(=O)N[C@@H](Cc2ccccc2)C(=O)NC)cc1
Q = CNC(=O)[C@H](Cc1ccc(OC)cc1)NC(=O)[C@H](CCCCOc1ccc(OC)cc1)CC(=O)O
Q. Min pIC50? P | Q Your choice should be expressed through its label.
A. P

a = CNC(=O)[C@H](Cc1ccccc1)NC(=O)[C@H](CCOc1ccc(OC)cc1)CC(=O)O
b = COc1ccc(OCCC[C@H](CC(=O)NO)C(=O)N[C@@H](Cc2ccccc2)C(=O)NC(C)(C)C)cc1
c = CNC(=O)[C@H](Cc1ccccc1)NC(=O)[C@H](CCCOc1ccc(OC)cc1)CC(=O)OCc1oc(=O)oc1C
Q. Let's sort these by pIC50, smallest first. Go ahead? Give the labels in the order specified.
A. c, a, b

A = CCOc1ccc(C[C@H](NC(=O)[C@H](CCCCOc2ccc(OC)cc2)CC(=O)O)C(=O)NC)cc1
B = CNC(=O)[C@H](Cc1ccccc1)NC(=O)[C@H](CCc1ccc2cccccc1-2)CC(=O)NO
C = CNC(=O)[C@H](Cc1ccccc1)NC(=O)[C@H](CCOc1ccc(OC)cc1)CC(=O)NO
D = CNC(=O)[C@H](Cc1ccccc1)NC(=O)[C@H](CCCCc1ccc2cccccc1-2)CC(=O)NO
Q. Let's sort these by pIC50, smallest first. Go ahead? Give the labels in the order specified.
A. D, B, A, C

P = CCOc1ccc(OCCC[C@H](CC(=O)NO)C(=O)N[C@@H](Cc2ccccc2)C(=O)NC)cc1
Q = CNC(=O)[C@H](Cc1ccccc1)NC(=O)[C@H](CCCc1ccc2cccccc1-2)CC(=O)NO
Q. Two entries are listed, P and Q . Which one carries the higher pIC50? Your choice should be expressed through its label.
A. P

P = CNC(=O)[C@@H](NC(=O)[C@H](CCc1ccc2cccccc1-2)CC(=O)NO)C(C)(C)C
Q = CNC(=O)[C@H](Cc1ccc(OC)cc1)NC(=O)[C@H](CCCCOc1ccc(OC)cc1)CC(=O)NO
Q. Two entries are listed, P and Q . Which one carries the higher pIC50? Your choice should be expressed through its label.
A. Q

1 = CCOc1ccc(OCCC[C@H](CC(=O)OCc2oc(=O)oc2C)C(=O)N[C@@H](Cc2ccccc2)C(=O)NC)cc1
2 = CNC(=O)[C@H](Cc1ccc(OC)cc1)NC(=O)[C@H](CCCOc1ccc(OC)cc1)CC(=O)O
Q. Two entries are listed, 1 and 2 . Which one carries the higher pIC50? Your choice should be expressed through its label.
A. 2

a = CCOc1ccc(C[C@H](NC(=O)[C@H](CCCCOc2ccc(OC)cc2)CC(=O)NO)C(=O)NC)cc1
b = CNC(=O)[C@H](Cc1ccc(OC)cc1)NC(=O)[C@H](CCOc1ccc(OC)cc1)CC(=O)O
c = COc1ccc(OCCC[C@H](CC(=O)O)C(=O)N[C@@H](Cc2ccccc2)C(=O)NCCS(N)(=O)=O)cc1
Q. Given 3 compounds, produce a descending ranking by pIC50. Give the labels in the order specified.
A. a, c, b
(a: 9.49, c: 8.52, b: 7.89)

* * *

target under test: MMP-9 (gelatinase B) (Homo sapiens, UniProt P14780)
protocol: MMP-9 (gelatinase B) inhibitory activity, FITC-labeled type IV collagen degradation
condition summary: 50% inhibition of collagen type IV degradation; MMP-9 derived from human fibrosarcoma; 42° C., 4 h
measurement label: IC50 (nM)

P = CCOc1ccc(OCCCC[C@H](CC(=O)NO)C(=O)N[C@@H](Cc2ccccc2)C(=O)NC)cc1
Q = COc1ccc(OCCC[C@H](CC(=O)NO)C(=O)N[C@@H](Cc2ccccc2)C(=O)NCCS(N)(=O)=O)cc1
R = CCOc1ccc(OCC[C@H](CC(=O)O)C(=O)N[C@@H](Cc2ccccc2)C(=O)NC)cc1
S = CNC(=O)[C@H](Cc1ccc(OC)cc1)NC(=O)[C@H](CCCCOc1ccc(OC)cc1)CC(=O)OCc1oc(=O)oc1C
Q. Please list these molecules in decreasing order of IC50. Give the labels in the order specified.
A. S, R, P, Q
